meta.source: the supplement of paper PMC7125110

B1: glmS ribozyme (parent)
chain: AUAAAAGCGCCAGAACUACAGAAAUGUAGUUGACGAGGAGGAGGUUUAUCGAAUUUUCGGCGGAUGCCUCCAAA

variants of: B1; experiment: self-cleavage kobs at 10000 uM GlcN6P; higher = faster cleavage; RNA array; conditions: with glucosamine-6-phosphate
Fewer inactive variants are shown than the library holds.
measured.endpoint: self-cleavage kobs at 10000 uM GlcN6P

Given A12C G37C , state its recorded self-cleavage kobs at 10000 uM GlcN6P.
5.03e-05 s⁻¹

Given A6C G7C G32A A52U , state its recorded self-cleavage kobs at 10000 uM GlcN6P.
< 1e-05 s⁻¹

Given G40U A48G C70A , state its recorded self-cleavage kobs at 10000 uM GlcN6P.
3.93e-05 s⁻¹

Given C8A A48U G66U , state its recorded self-cleavage kobs at 10000 uM GlcN6P.
< 1e-05 s⁻¹

Given C11G G37U , state its recorded self-cleavage kobs at 10000 uM GlcN6P.
< 1e-05 s⁻¹

Given C10G C50A C71U , state its recorded self-cleavage kobs at 10000 uM GlcN6P.
< 1e-05 s⁻¹

Given G9U G62U , state its recorded self-cleavage kobs at 10000 uM GlcN6P.
< 1e-05 s⁻¹

Given C16A U31A C71G , state its recorded self-cleavage kobs at 10000 uM GlcN6P.
4.01e-05 s⁻¹

Given G13A G32C , state its recorded self-cleavage kobs at 10000 uM GlcN6P.
0.000388 s⁻¹

Given A52U U54G , state its recorded self-cleavage kobs at 10000 uM GlcN6P.
0.000207 s⁻¹

Given G37C C68A , state its recorded self-cleavage kobs at 10000 uM GlcN6P.
< 1e-05 s⁻¹

Given G29C A33U , state its recorded self-cleavage kobs at 10000 uM GlcN6P.
2.33e-05 s⁻¹

Given U30C G44U , state its recorded self-cleavage kobs at 10000 uM GlcN6P.
< 1e-05 s⁻¹

Given G13A G40C C70G , state its recorded self-cleavage kobs at 10000 uM GlcN6P.
< 1e-05 s⁻¹

Given U30C G43U , state its recorded self-cleavage kobs at 10000 uM GlcN6P.
< 1e-05 s⁻¹

Given A12C G29U U65A , state its recorded self-cleavage kobs at 10000 uM GlcN6P.
0.000443 s⁻¹

Given G9U C16U G43U A53U , state its recorded self-cleavage kobs at 10000 uM GlcN6P.
< 1e-05 s⁻¹

Given G13A U49C , state its recorded self-cleavage kobs at 10000 uM GlcN6P.
< 1e-05 s⁻¹

Given C10U A15G G40U , state its recorded self-cleavage kobs at 10000 uM GlcN6P.
< 1e-05 s⁻¹

Given `U46C` , state its recorded self-cleavage kobs at 10000 uM GlcN6P.
0.00329 s⁻¹

Given G32U A52G C70A , state its recorded self-cleavage kobs at 10000 uM GlcN6P.
8.27e-05 s⁻¹

Given A15C C16U , state its recorded self-cleavage kobs at 10000 uM GlcN6P.
0.0029 s⁻¹
